For each record, write down the corresponding pIC50.
Target: FGFR3 enzyme (Homo sapiens (Human))
Sequence (P22607 23-806): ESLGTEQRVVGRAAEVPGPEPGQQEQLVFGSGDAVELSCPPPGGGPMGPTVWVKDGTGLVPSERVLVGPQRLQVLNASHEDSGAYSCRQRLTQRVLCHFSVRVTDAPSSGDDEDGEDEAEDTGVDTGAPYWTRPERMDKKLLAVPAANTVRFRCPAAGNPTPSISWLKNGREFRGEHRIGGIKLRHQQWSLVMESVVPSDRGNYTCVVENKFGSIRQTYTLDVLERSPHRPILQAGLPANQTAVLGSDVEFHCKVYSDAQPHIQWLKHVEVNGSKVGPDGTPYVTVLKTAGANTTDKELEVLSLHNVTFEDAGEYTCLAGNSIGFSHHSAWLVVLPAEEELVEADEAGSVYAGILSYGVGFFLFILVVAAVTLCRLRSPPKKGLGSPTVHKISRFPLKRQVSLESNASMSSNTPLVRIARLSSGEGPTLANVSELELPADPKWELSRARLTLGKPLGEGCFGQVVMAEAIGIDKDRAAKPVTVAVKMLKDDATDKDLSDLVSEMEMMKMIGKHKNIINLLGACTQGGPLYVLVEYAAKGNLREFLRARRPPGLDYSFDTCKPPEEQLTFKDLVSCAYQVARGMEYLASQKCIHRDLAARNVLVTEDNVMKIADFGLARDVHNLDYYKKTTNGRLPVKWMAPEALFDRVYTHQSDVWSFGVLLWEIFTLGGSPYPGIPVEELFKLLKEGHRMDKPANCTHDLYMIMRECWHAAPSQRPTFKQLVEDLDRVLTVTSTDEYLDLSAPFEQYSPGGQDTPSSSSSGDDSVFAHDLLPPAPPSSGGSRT
Assay: FGFR Enzymatic Assay (FRET peptide phosphorylation), FGFR3
Assay type: biochemical
Conditions: pre-incubated for 5 to 10 minutes; read-out: FGFR3 IC50
pIC50: −log10 of the molar value.

{"STRUCTURE_NOTATION": "COc1cc(OC)c(F)c(N2Cc3cnc(-c4cn(C)nc4C)cc3N(Cc3ccnc(C)n3)C2=O)c1F", "pIC50": "> 8.00"}
{"STRUCTURE_NOTATION": "COc1cc(OC)c(F)c(N2Cc3cnc(-c4cn(C)nc4C)cc3N(c3ccnnc3)C2=O)c1F", "pIC50": "7.52 to 8.00"}
{"STRUCTURE_NOTATION": "COc1cc(OC)c(F)c(N2Cc3cnc(-c4cncc(C(=O)N5CCOCC5)c4)cc3C3(CC3)C2=O)c1F", "pIC50": "6.70 to 7.52"}
{"STRUCTURE_NOTATION": "COc1cc(OC)c(F)c(N2Cc3cnc(-c4cnn(C)c4)cc3N(c3ccc(C#N)cc3)C2=O)c1F", "pIC50": "7.52 to 8.00"}
{"STRUCTURE_NOTATION": "COc1cc(OC)c(F)c(N2Cc3cnc(-c4cncc(-n5ccnc5)c4)cc3C3(CC3)C2=O)c1F", "pIC50": "6.70 to 7.52"}
{"STRUCTURE_NOTATION": "COc1cc(OC)c(F)c(N2Cc3cnc(-c4ccc(C5(C#N)CCC5)nc4)cc3N(Cc3nnc(C)o3)C2=O)c1F", "pIC50": "> 8.00"}

Then there is this compound:
Query: What does the record list as pIC50 for COc1cc(OC)c(F)c(N2Cc3cnc(-c4cncc(Cl)c4)cc3C3(CC3)C2=O)c1F ?
Response: 6.70 to 7.52
